system: E. coli ATCC25922; test: Bacterial growth minimal inhibitory concentration (CLSI broth microdilution); assay type: cell-based; settings: Escherichia coli, ATCC25922; quinolone-sensitive strain; cation-adjusted Mueller-Hinton Broth

>  <Compound>
CN1CCN(C(=O)OCc2ccc(C#Cc3cc4n(c3)C(=O)N(CC[C@](C)(C(=O)NO)S(C)(=O)=O)C4)cc2)CC1

>  <Comparison symbol>
=

>  <MIC (µg/mL)>
0.25

$$$$
>  <Compound>
C[C@@](CCN1Cc2cc(C#CC#CC3(F)CN(CCO)C3)cn2C1=O)(C(=O)NO)S(C)(=O)=O

>  <Comparison symbol>
=

>  <MIC (µg/mL)>
0.5

$$$$
>  <Compound>
C[C@@](CCN1Cc2cc(C#CC#CC3CN(CCCO)C3)cn2C1=O)(C(=O)NO)S(C)(=O)=O

>  <Comparison symbol>
=

>  <MIC (µg/mL)>
0.25

$$$$
>  <Compound>
[2H]C([2H])S(=O)(=O)[C@](C)(CCN1Cc2cc(C#CC#CC3CN(C)C3)cn2C1=O)C(=O)NO

>  <Comparison symbol>
=

>  <MIC (µg/mL)>
0.5

$$$$
>  <Compound>
CCN1CC(C#CC#Cc2cc3n(c2)C(=O)N(CC[C@](C)(C(=O)NO)S(C)(=O)=O)C3)C1

>  <Comparison symbol>
=

>  <MIC (µg/mL)>
0.25

$$$$
>  <Compound>
C[C@@](CCN1Cc2cc(C#Cc3ccc(CN4CC[C@H](O)C(F)(F)C4)cc3)cn2C1=O)(C(=O)NO)S(C)(=O)=O

>  <Comparison symbol>
=

>  <MIC (µg/mL)>
0.5

$$$$
>  <Compound>
C[C@@](CCN1Cc2cc(C#CC#CC3CN(CCF)C3)cn2C1=O)(C(=O)NO)S(C)(=O)=O

>  <Comparison symbol>
=

>  <MIC (µg/mL)>
0.063

$$$$
>  <Compound>
C[C@@](CCN1Cc2cc(C#CC#CC3(O)CCN(C4COC4)CC3)cn2C1=O)(C(=O)NO)S(C)(=O)=O

>  <Comparison symbol>
=

>  <MIC (µg/mL)>
8

$$$$
>  <Compound>
CN1CCC(O)(C#CC#Cc2cc3n(c2)C(=O)N(CC[C@](C)(C(=O)NO)S(C)(=O)=O)C3)CC1

>  <Comparison symbol>
>

>  <MIC (µg/mL)>
8

$$$$
>  <Compound>
C[C@@](CCN1Cc2cc(C#CC#CC3CN(C4CC4)C3)cn2C1=O)(C(=O)NO)S(C)(=O)=O

>  <Comparison symbol>
=

>  <MIC (µg/mL)>
0.125

$$$$
>  <Compound>
CC(=O)N1CC(C#CC#Cc2cc3n(c2)C(=O)N(CC[C@](C)(C(=O)NO)S(C)(=O)=O)C3)C1

>  <Comparison symbol>
=

>  <MIC (µg/mL)>
1

$$$$
>  <Compound>
C[C@@](CCN1Cc2cc(C#CC#CC3CN(C4CC(O)C4)C3)cn2C1=O)(C(=O)NO)S(C)(=O)=O (some centres unmarked)

>  <Comparison symbol>
=

>  <MIC (µg/mL)>
0.25

$$$$
>  <Compound>
CN1CCC(C#CC#Cc2cc3n(c2)C(=O)N(CC[C@](C)(C(=O)NO)S(C)(=O)=O)C3)C1 (mixture of isomers)

>  <Comparison symbol>
=

>  <MIC (µg/mL)>
2

$$$$
>  <Compound>
C[C@@H]1[C@H](C#CC#Cc2cc3n(c2)C(=O)N(CC[C@](C)(C(=O)NO)S(C)(=O)=O)C3)CN1C

>  <Comparison symbol>
=

>  <MIC (µg/mL)>
4

$$$$
